# assay: Selectivity index, ratio of CC50 for human MT4 cells to EC50 for HIV1 RES056 harboring reverse transcriptase K103N/Y181C mutant
# Assay type: toxicity, cell-based
# assay.setup: read-out: Ratio CC50/EC50
property: selectivity ratio

Sample answers from the record:
> print(dat)
                        structure.as.smiles  result.value
1  Cc1ccc(NC(=O)CSc2nncnc2-c2ccccc2Cl)c(Br)c1           ≤ 1
2  COC(=O)c1sccc1NC(=O)CSc1nncnc1-c1ccccc1Cl           < 1

We now examine a further compound.
Input O=C(CSc1nncnc1-c1ccccc1Cl)Nc1ccc(Cl)cc1Cl . Output selectivity ratio: < 1

###

# System: Human immunodeficiency virus 1
# assay: Antiviral activity against HIV1 RES056 harboring reverse transcriptase K103N/Y181C mutant infected in human MT4 cells assessed as inhibition of virus-induced cytopathicity by MTT assay
# Format: functional, organism-based
# assay.setup: Human immunodeficiency virus 1, RES056, MT4
pEC50: −log10 of the molar value.
property: pEC50

> print(dat)
                        structure.as.smiles  result.value
1  COC(=O)c1ccc(NC(=O)CSc2nncnc2-c2ccccc2Cl)c(Br)c1        < 4.23
2  CCOC(=O)c1ccc(NC(=O)CSc2nncnc2-c2ccccc2Cl)c(Br)c1        < 4.16

Now let's try a different one.
The value of pEC50 measured for the molecule O=C(CSc1nncnc1-c1cccc2ccccc12)Nc1ccccc1Br turned out to be ≤ 4.37

Values from ChEMBL document CHEMBL2203176
